The origin of these recorded values is paper PMC7442682.

Molecular target: 5-HT1A receptor (Homo sapiens, UniProt P08908)
Sequence (P08908 1-422): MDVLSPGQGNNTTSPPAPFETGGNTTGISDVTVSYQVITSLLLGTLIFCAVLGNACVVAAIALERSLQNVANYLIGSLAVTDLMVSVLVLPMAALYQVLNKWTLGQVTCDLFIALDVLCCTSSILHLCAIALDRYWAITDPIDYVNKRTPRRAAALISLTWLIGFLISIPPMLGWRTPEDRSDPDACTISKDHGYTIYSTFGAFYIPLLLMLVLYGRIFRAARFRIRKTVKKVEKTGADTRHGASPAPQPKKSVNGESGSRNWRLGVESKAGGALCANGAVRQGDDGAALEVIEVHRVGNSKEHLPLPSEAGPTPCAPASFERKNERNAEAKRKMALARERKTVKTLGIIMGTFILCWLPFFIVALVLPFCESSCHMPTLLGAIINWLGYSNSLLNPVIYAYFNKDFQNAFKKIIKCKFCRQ
Value kind: pKi
As a rule, pKi stands for the negative log10 of the concentration, concentration in M.

Sample records with pKi:
COc1cc2c3c(c1OC)-c1ccccc1C3CNCC2 (stereo not drawn)
6.96
Oc1cc2c3c(c1O)-c1ccccc1C3CNCC2 (stereo not drawn)
6.82

Which pKi is listed for CN1CCc2cc(O)c(O)c3c2C(C1)c1ccccc1-3 (stereo not drawn) ?
6.41

----------
Molecular target: α2C adrenergic receptor (Homo sapiens)
Sequence (P18825 1-462): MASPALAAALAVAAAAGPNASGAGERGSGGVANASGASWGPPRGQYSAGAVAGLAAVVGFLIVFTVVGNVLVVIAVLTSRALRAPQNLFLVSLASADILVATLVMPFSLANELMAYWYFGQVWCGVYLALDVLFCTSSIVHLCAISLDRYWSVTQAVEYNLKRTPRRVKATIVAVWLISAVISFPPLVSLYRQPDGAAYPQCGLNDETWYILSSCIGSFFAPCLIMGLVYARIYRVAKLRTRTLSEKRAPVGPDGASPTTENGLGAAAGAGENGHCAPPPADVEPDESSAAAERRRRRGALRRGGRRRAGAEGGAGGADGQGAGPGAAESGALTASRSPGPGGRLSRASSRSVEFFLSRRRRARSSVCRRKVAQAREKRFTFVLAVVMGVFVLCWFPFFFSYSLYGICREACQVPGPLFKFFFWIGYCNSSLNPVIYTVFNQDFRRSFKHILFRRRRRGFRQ
Some compounds, each annotated with its measured pKi.
For clarity, pKi is expressed as the negative log10 of concentration in mol/L.

Worked set:
COc1cc2c3c(c1OC)-c1ccccc1C3CNCC2 (stereo not shown) [Compound 10]
6.11
COc1cc2c3c(c1OC)-c1ccccc1C3CN(C)CC2 (stereo not shown) [Compound 12]
6.33
CN1CCc2cc(O)c(O)c3c2C(C1)c1ccccc1-3 (stereo not shown) [Compound 13]
5.71

Turning to the following compound.
Recorded pKi of Oc1cc2c3c(c1O)-c1ccccc1C3CNCC2 (stereo not shown) [Compound 11] , please.
5.96

----------
Listed compounds paired with reported Ki
Biological target: α1A adrenergic receptor (Homo sapiens, UniProt P35348)
Sequence (P35348 1-466): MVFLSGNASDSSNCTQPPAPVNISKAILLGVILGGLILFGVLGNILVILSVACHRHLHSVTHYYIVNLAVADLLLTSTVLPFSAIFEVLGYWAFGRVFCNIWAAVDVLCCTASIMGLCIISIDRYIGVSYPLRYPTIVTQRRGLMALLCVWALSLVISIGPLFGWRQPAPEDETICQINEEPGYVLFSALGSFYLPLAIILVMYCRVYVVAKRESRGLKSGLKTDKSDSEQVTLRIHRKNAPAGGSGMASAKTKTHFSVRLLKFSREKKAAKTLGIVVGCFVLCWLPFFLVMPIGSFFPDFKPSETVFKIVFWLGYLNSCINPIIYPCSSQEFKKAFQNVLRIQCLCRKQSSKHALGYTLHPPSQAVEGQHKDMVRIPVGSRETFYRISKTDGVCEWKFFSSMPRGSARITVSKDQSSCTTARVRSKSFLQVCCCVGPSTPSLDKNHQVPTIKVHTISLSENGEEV
Please state the figure in nM; there is no need to write the unit.

COc1cc2c3c(c1OC)-c1ccccc1C3CN(C)CC2 (stereo not shown)
2860

Which Ki reading was recorded for the compound COc1cc2c3c(c1OC)-c1ccccc1C3CNCC2 (stereo not shown) ?
545

Lookup Oc1cc2c3c(c1O)-c1ccccc1C3CNCC2 (stereo not shown)
3200

----------
molecular target: α2A adrenergic receptor (Homo sapiens); experiment: PDSP radioligand binding, α2A adrenergic receptor
Sequence (P08913 whole entry): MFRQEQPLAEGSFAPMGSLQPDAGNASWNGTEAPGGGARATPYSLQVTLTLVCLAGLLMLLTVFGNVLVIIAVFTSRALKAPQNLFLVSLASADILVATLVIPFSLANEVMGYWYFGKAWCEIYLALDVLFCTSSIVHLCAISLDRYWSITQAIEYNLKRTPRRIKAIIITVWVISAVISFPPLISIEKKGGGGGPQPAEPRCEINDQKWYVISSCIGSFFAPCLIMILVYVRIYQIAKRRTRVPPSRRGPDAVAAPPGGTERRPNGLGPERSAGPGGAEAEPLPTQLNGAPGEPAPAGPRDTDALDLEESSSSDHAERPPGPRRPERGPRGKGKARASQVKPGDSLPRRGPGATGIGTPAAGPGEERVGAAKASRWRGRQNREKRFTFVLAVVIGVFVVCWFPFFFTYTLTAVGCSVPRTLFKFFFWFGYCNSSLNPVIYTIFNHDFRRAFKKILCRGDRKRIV
Value kind: Ki (nM)
Report the value in nM with no unit label.

COc1cc2c3c(c1OC)-c1ccccc1C3CNCC2 (stereo not drawn)
1600

Requested read-out Ki, target or system α2A adrenergic receptor (Homo sapiens), entry Oc1cc2c3c(c1O)-c1ccccc1C3CNCC2 (stereo not drawn)
2590

Ok, now COc1cc2c3c(c1OC)-c1ccccc1C3CN(C)CC2 (stereo not drawn)
1170

----------
biological target: UniProt:P35462
Sequence (P35462 whole entry): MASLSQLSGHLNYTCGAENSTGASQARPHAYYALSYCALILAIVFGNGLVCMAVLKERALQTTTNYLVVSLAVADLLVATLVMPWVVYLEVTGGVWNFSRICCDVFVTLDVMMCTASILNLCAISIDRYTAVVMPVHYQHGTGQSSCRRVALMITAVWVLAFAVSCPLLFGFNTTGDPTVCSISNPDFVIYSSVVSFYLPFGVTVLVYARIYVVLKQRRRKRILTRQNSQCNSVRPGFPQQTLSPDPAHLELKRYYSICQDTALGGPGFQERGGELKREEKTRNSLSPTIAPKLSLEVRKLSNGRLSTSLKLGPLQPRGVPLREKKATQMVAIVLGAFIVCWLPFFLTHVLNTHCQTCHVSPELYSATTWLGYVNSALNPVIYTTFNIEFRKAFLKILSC
Value kind: pKi
Worth noting: pKi values are minus log10 of concentrations stated in mol/L.

Oc1cc2c3c(c1O)-c1ccccc1C3CNCC2 (stereo not drawn) [Compound 11]
5.53
COc1cc2c3c(c1OC)-c1ccccc1C3CN(C)CC2 (stereo not drawn) [Compound 12]
7.10

Now look at this entry.
Requested read-out: pKi. Entry: COc1cc2c3c(c1OC)-c1ccccc1C3CNCC2 (stereo not drawn) [Compound 10]
6.38

----------
System: 5-HT1B receptor (Homo sapiens, UniProt P28222) | Read-out: pKi
Sequence (P28222 whole entry): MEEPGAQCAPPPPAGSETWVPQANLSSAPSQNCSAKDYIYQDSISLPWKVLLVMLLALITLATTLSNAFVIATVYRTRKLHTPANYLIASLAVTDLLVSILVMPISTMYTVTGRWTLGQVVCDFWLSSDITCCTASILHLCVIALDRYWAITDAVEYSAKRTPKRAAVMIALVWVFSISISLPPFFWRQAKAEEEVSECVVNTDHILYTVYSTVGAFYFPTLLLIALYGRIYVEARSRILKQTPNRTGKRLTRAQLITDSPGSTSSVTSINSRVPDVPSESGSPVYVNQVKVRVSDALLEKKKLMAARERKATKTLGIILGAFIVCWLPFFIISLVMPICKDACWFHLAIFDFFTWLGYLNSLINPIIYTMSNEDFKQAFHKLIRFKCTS
// field semantics: pKi = negative decimal log of concentration (mol/L)

COc1cc2c3c(c1OC)-c1ccccc1C3CNCC2 (stereo not drawn) [Compound 10]
6.59
Oc1cc2c3c(c1O)-c1ccccc1C3CNCC2 (stereo not drawn) [Compound 11]
6.35

Could you now consider this next compound?
For the compound CN1CCc2cc(O)c(O)c3c2C(C1)c1ccccc1-3 (stereo not drawn) [Compound 13] , what pKi is on record?
5.99

----------
molecular target: 5-HT2A receptor (Homo sapiens, UniProt P28223)
Sequence (P28223 whole entry): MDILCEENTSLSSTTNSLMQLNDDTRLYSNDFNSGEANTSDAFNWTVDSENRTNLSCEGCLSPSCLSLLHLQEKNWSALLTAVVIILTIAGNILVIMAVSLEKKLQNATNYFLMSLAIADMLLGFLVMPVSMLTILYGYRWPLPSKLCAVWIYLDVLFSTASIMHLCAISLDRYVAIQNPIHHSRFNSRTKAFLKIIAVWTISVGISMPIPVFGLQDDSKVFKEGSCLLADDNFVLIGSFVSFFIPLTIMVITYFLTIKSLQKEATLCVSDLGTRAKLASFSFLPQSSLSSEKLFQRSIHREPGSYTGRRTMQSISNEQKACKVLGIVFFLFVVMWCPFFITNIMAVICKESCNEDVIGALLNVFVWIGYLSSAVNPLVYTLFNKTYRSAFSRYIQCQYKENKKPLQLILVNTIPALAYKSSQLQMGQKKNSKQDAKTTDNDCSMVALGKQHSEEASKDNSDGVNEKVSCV
Value kind: Ki (nM)
Write the value in nM as a bare number.

Guide cases for Ki, answers given:
COc1cc2c3c(c1OC)-c1ccccc1C3CN(C)CC2 (stereo not shown) [Compound 12]
811
COc1cc2c3c(c1OC)-c1ccccc1C3CNCC2 (stereo not shown) [Compound 10]
1680
CN1CCc2cc(O)c(O)c3c2C(C1)c1ccccc1-3 (stereo not shown) [Compound 13]
352

For the compound shown here, Oc1cc2c3c(c1O)-c1ccccc1C3CNCC2 (stereo not shown) [Compound 11] , give the reported Ki.
1560

----------
This document collects pKi values reported for 5-HT6 receptor (Homo sapiens).
// returns pKi (minus log10 of molar concentration), number only

COc1cc2c3c(c1OC)-c1ccccc1C3CN(C)CC2 (stereo not shown)
8.30
CN1CCc2cc(O)c(O)c3c2C(C1)c1ccccc1-3 (stereo not shown)
6.91
COc1cc2c3c(c1OC)-c1ccccc1C3CNCC2 (stereo not shown)
8.30

Now examine the next entry.
Given the entry Oc1cc2c3c(c1O)-c1ccccc1C3CNCC2 (stereo not shown) , report its measured pKi.
7.42

----------
The following compounds have recorded pKi on 5-HT5A receptor (Homo sapiens).
Sequence (P47898 whole entry): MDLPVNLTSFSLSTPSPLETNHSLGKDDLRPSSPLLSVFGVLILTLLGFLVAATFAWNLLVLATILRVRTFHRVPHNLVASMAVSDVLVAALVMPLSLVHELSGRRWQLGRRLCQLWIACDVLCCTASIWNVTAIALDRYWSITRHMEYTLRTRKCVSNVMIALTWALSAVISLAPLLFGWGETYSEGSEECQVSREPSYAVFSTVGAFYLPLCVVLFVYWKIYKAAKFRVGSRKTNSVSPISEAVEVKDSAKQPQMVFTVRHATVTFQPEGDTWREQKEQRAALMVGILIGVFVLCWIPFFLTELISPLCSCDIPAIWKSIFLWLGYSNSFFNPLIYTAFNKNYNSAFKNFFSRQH
By convention, pKi is the negative base-10 log of a molar concentration.

Looking for the measured pKi of Oc1cc2c3c(c1O)-c1ccccc1C3CNCC2 (stereo not shown) [Compound 11] , can you help?
6.61

What about this compound? CN1CCc2cc(O)c(O)c3c2C(C1)c1ccccc1-3 (stereo not shown) [Compound 13]
6.44

And then COc1cc2c3c(c1OC)-c1ccccc1C3CN(C)CC2 (stereo not shown) [Compound 12] , what is it?
6.54

Also COc1cc2c3c(c1OC)-c1ccccc1C3CNCC2 (stereo not shown) [Compound 10] ?
6.24
